Test system: HT-29
assay.overview: Cytotoxicity against human HT-29 cells assessed as reduction in cell growth after 3 days by MTT assay
Assay type: functional, cell-based
condition.label: HT-29, 72 h
Consider the following compounds and their measured IC50 readings.

record.smiles: COc1ccc(-c2ccccc2O)cc1
tested.target: HT-29
qualifier.sign: =
IC50 (µg/mL): 47

record.smiles: Nc1cccc(-c2ccccc2O)c1
tested.target: HT-29
qualifier.sign: =
IC50 (µg/mL): 49

record.smiles: COc1ccc(-c2ccccc2O)c(OC)c1
tested.target: HT-29
qualifier.sign: =
IC50 (µg/mL): 33.7

record.smiles: COc1ccc(-c2ccccc2)cc1
tested.target: HT-29
qualifier.sign: =
IC50 (µg/mL): 45

record.smiles: Nc1ccccc1-c1cccc(O)c1
tested.target: HT-29
qualifier.sign: =
IC50 (µg/mL): 9.2

record.smiles: COc1ccccc1-c1ccc(O)cc1
tested.target: HT-29
qualifier.sign: =
IC50 (µg/mL): 49

record.smiles: Nc1cccc(-c2ccc(O)cc2)c1
tested.target: HT-29
qualifier.sign: =
IC50 (µg/mL): 5.4

record.smiles: COc1ccccc1-c1ccccc1
tested.target: HT-29
qualifier.sign: =
IC50 (µg/mL): 51

record.smiles: Nc1cccc(-c2cccc(O)c2)c1
tested.target: HT-29
qualifier.sign: =
IC50 (µg/mL): 54

record.smiles: COc1ccc(-c2cccc(O)c2)cc1OC
tested.target: HT-29
qualifier.sign: =
IC50 (µg/mL): 29

record.smiles: COc1ccc(-c2ccccc2N)cc1OC
tested.target: HT-29
qualifier.sign: =
IC50 (µg/mL): 15

record.smiles: COc1ccc(-c2ccccc2)cc1OC
tested.target: HT-29
qualifier.sign: =
IC50 (µg/mL): 41

record.smiles: Oc1ccc(-c2ccccc2)cc1
tested.target: HT-29
qualifier.sign: =
IC50 (µg/mL): 25

record.smiles: COc1ccc(-c2cccc(O)c2)cc1
tested.target: HT-29
qualifier.sign: =
IC50 (µg/mL): 72

record.smiles: Oc1cccc(-c2cccc(O)c2)c1
tested.target: HT-29
qualifier.sign: =
IC50 (µg/mL): 2.5

record.smiles: COc1ccc(-c2ccccc2N)c(OC)c1
tested.target: HT-29
qualifier.sign: =
IC50 (µg/mL): 56

record.smiles: Oc1ccccc1-c1ccccc1
tested.target: HT-29
qualifier.sign: =
IC50 (µg/mL): 55

record.smiles: COc1ccc(-c2ccc(O)cc2)cc1
tested.target: HT-29
qualifier.sign: >
IC50 (µg/mL): 100

record.smiles: COc1cccc(-c2ccc(O)cc2)c1
tested.target: HT-29
qualifier.sign: =
IC50 (µg/mL): 24

record.smiles: COc1ccc(-c2ccc(N)cc2)c(OC)c1
tested.target: HT-29
qualifier.sign: =
IC50 (µg/mL): 2.2

record.smiles: COc1ccccc1-c1ccccc1O
tested.target: HT-29
qualifier.sign: =
IC50 (µg/mL): 2.7

record.smiles: Oc1ccccc1-c1ccccc1O
tested.target: HT-29
qualifier.sign: =
IC50 (µg/mL): 2.5

record.smiles: COc1cccc(-c2cccc(O)c2)c1
tested.target: HT-29
qualifier.sign: =
IC50 (µg/mL): 16

record.smiles: COc1cccc(-c2ccccc2)c1
tested.target: HT-29
qualifier.sign: =
IC50 (µg/mL): 1.1

record.smiles: Nc1ccccc1-c1ccc(O)cc1
tested.target: HT-29
qualifier.sign: =
IC50 (µg/mL): 51

record.smiles: COc1ccc(-c2ccccc2O)cc1OC
tested.target: HT-29
qualifier.sign: >
IC50 (µg/mL): 100

record.smiles: Oc1ccc(-c2cccc(O)c2)cc1
tested.target: HT-29
qualifier.sign: =
IC50 (µg/mL): 3.4

record.smiles: COc1ccc(-c2cccc(N)c2)c(OC)c1
tested.target: HT-29
qualifier.sign: =
IC50 (µg/mL): 49

record.smiles: COc1ccc(-c2cccc(N)c2)cc1OC
tested.target: HT-29
qualifier.sign: =
IC50 (µg/mL): 4

record.smiles: Oc1ccc(-c2ccc(O)cc2)cc1
tested.target: HT-29
qualifier.sign: =
IC50 (µg/mL): 13.9

record.smiles: Oc1ccc(-c2ccccc2O)cc1
tested.target: HT-29
qualifier.sign: =
IC50 (µg/mL): 1.4

record.smiles: Nc1cccc(-c2ccccc2)c1
tested.target: HT-29
qualifier.sign: =
IC50 (µg/mL): 42

* * *

molecules and their reported Activity
Test system: HT-29
assay.overview: Downregulation of TERT gene expression in human HT-29 cells assessed as gene expression levels at 3 ug/ml after 48 hrs by RT-qPCR analysis relative to control
Type: functional
parameter: Activity (%)

record.smiles: Oc1cccc(-c2cccc(O)c2)c1
tested.target: HT-29
parameter: Activity
reported.result: 29
//
record.smiles: Oc1ccc(-c2ccccc2O)cc1
tested.target: HT-29
parameter: Activity
reported.result: 11
//
record.smiles: COc1ccccc1-c1ccccc1O
tested.target: HT-29
parameter: Activity
reported.result: 3
//
record.smiles: COc1ccc(-c2ccc(N)cc2)cc1OC
tested.target: HT-29
parameter: Activity
reported.result: 100
//
record.smiles: Oc1ccccc1-c1ccccc1O
tested.target: HT-29
parameter: Activity
reported.result: 3
//
record.smiles: Oc1ccc(-c2cccc(O)c2)cc1
tested.target: HT-29
parameter: Activity
reported.result: 30
//
record.smiles: Oc1cccc(-c2ccccc2O)c1
tested.target: HT-29
parameter: Activity
reported.result: 18
//
record.smiles: Nc1cccc(-c2ccc(O)cc2)c1
tested.target: HT-29
parameter: Activity
reported.result: 78

* * *

System: HT-29
assay.overview: Cytotoxicity against human HT-29 cells assessed as reduction in cell growth after 3 days by MTT assay
Format: functional, cell-based
condition.label: HT-29, 72 h
IC50 by entry:
parameter: IC50 (µg/mL)

record.smiles: Nc1ccc(-c2ccc(O)cc2)cc1
tested.target: HT-29
qualifier.sign: =
reported.result: 56
--
record.smiles: Nc1ccccc1-c1ccccc1
tested.target: HT-29
qualifier.sign: =
reported.result: 16
--
record.smiles: Nc1ccc(-c2cccc(O)c2)cc1
tested.target: HT-29
qualifier.sign: =
reported.result: 49.3
--
record.smiles: Nc1ccc(-c2ccccc2O)cc1
tested.target: HT-29
qualifier.sign: =
reported.result: 27.3
--
record.smiles: COc1ccc(-c2cccc(O)c2)c(OC)c1
tested.target: HT-29
qualifier.sign: =
reported.result: 54
--
record.smiles: Oc1cccc(-c2ccccc2O)c1
tested.target: HT-29
qualifier.sign: =
reported.result: 5.2
--
record.smiles: COc1ccc(-c2ccc(N)cc2)cc1OC
tested.target: HT-29
qualifier.sign: =
reported.result: 2
--
record.smiles: Nc1ccc(-c2ccccc2)cc1
tested.target: HT-29
qualifier.sign: >
reported.result: 100
--
record.smiles: COc1ccc(-c2ccc(O)cc2)c(OC)c1
tested.target: HT-29
qualifier.sign: =
reported.result: 21
--
record.smiles: Nc1ccccc1-c1ccccc1O
tested.target: HT-29
qualifier.sign: =
reported.result: 44
--
record.smiles: COc1ccc(-c2ccc(O)cc2)cc1OC
tested.target: HT-29
qualifier.sign: =
reported.result: 26
--
record.smiles: Oc1cccc(-c2ccccc2)c1
tested.target: HT-29
qualifier.sign: =
reported.result: 28
--
record.smiles: COc1ccc(-c2ccccc2)c(OC)c1
tested.target: HT-29
qualifier.sign: =
reported.result: 55.2
--
record.smiles: COc1cccc(-c2ccccc2O)c1
tested.target: HT-29
qualifier.sign: =
reported.result: 35
--
record.smiles: COc1ccccc1-c1cccc(O)c1
tested.target: HT-29
qualifier.sign: =
reported.result: 22

* * *

assay.overview: Therapeutic index, ratio of IC50 for HEK293 cells to IC50 for human HT-29 cells
Type: cell-based
condition.label: HEK293 cells versus HT-29 cells, read-out: Ratio IC50
Label 0 if selectivity ratio falls below 1; label 1 in every other case.

compound: Nc1ccc(-c2ccc(O)cc2)cc1
label.class: 1
--
compound: COc1ccc(-c2ccccc2N)cc1OC
label.class: 1
--
compound: COc1cccc(-c2ccccc2)c1
label.class: 1
--
compound: COc1cccc(-c2ccc(O)cc2)c1
label.class: 1
--
compound: Nc1ccc(-c2ccccc2O)cc1
label.class: 1
--
compound: COc1ccc(-c2ccccc2)cc1
label.class: 0
--
compound: Nc1ccc(-c2cccc(O)c2)cc1
label.class: 1
--
compound: Nc1cccc(-c2ccccc2)c1
label.class: 1
--
compound: COc1ccccc1-c1ccccc1O
label.class: 1
--
compound: Oc1ccccc1-c1ccccc1 [2-PHENYLPHENOL]
label.class: 0
--
compound: Nc1ccccc1-c1cccc(O)c1
label.class: 1
--
compound: COc1ccc(-c2ccc(O)cc2)cc1
label.class: 0
--
compound: COc1ccc(-c2ccccc2O)cc1
label.class: 0
--
compound: COc1ccc(-c2cccc(O)c2)cc1OC
label.class: 0
--
compound: Oc1cccc(-c2ccccc2)c1
label.class: 0
--
compound: Nc1ccccc1-c1ccccc1O
label.class: 1
--
compound: Nc1cccc(-c2cccc(O)c2)c1
label.class: 0
--
compound: COc1ccccc1-c1cccc(O)c1
label.class: 1
--
compound: Nc1cccc(-c2ccc(O)cc2)c1
label.class: 1
--
compound: Oc1cccc(-c2ccccc2O)c1
label.class: 1
--
compound: Oc1ccc(-c2ccc(O)cc2)cc1
label.class: 0
--
compound: COc1ccc(-c2ccc(O)cc2)cc1OC
label.class: 1
--
compound: Oc1ccccc1-c1ccccc1O
label.class: 1
--
compound: C=CCc1ccc(O)c(-c2ccc(O)c(CC=C)c2)c1 [HONOKIOL]
label.class: 1
--
compound: Oc1ccc(-c2cccc(O)c2)cc1
label.class: 1
--
compound: COc1ccc(-c2ccc(O)cc2)c(OC)c1
label.class: 1
--
compound: COc1ccc(-c2ccccc2O)c(OC)c1
label.class: 1
--
compound: COc1cccc(-c2ccccc2O)c1
label.class: 1
